Each entry below lists one item and its recorded inhibition at 10 µM value.
Tested on: NCI-H226
Assay: NCI anticancer screening, Non-Small Cell Lung Cancer NCI-H226
Format: cell-based
Details: Homo sapiens; NCI-H226, 10 μM; read-out: % Growth Inhibition (GI %)
Source text: The compound has been processed according to standard method NCI-60 Human Tumor Cell Lines Screen for organic compound at development therapeutic program (DTP). Requests for access to this national resource can be submitted online at: […]
Respond numerically; units are % and should not be typed.

* O=C(c1nc2ccccc2[nH]1)[C@H]1[C@H](c2ccccc2O)C2CSCN2[C@]12C(=O)Nc1ccccc12 (stereo partly shown) | 91.3

Req: So what inhibition at 10 µM did O=C(c1nc2ccccc2[nH]1)[C@H]1[C@H](c2ccccc2)C2CSCN2[C@]12C(=O)Nc1ccccc12 (mixture of isomers) get with NCI-H226?
Resp: 95.3

Req: Quick one: O=C(c1nc2ccccc2[nH]1)[C@H]1[C@H](c2cccc(O)c2)C2CSCN2[C@]12C(=O)Nc1ccccc12 (stereo partly shown)
Resp: 99.1

Req: Quick one: CN(C)c1ccc([C@@H]2C3CSCN3[C@]3(C(=O)Nc4ccccc43)[C@H]2C(=O)c2nc3ccccc3[nH]2)cc1 (stereo partly shown)
Resp: 91.4

Req: Quick one: O=C(c1nc2ccccc2[nH]1)[C@H]1[C@H](c2ccc(Br)cc2)C2CSCN2[C@]12C(=O)Nc1ccccc12 (stereo partly shown)
Resp: 74.8

Req: Quick one: Cc1ccc([C@@H]2C3CSCN3[C@]3(C(=O)Nc4ccccc43)[C@H]2C(=O)c2nc3ccccc3[nH]2)cc1 (mixture of isomers)
Resp: 73.9

Req: Quick one: O=C(c1nc2ccccc2[nH]1)[C@H]1[C@H](c2ccc(Cl)cc2Cl)C2CSCN2[C@]12C(=O)Nc1ccccc12 (stereo partly shown)
Resp: 61.8
